Values from patent US20240209011A1

Entries and their measured IC50 follow.
Tested on: U-87
procedure_details: Cell viability assay (CellTiter-Blue/CellTiter-Glow)
Format: cell-based
measurement_context: Homo sapiens, U-87 MG; brain carcinoma cell line U-87; absolute IC50; 72 h
metric: IC50 (µM)

{"columns": ["compound", "result_value"],
 "data": [
  ["COc1c(O)ccc2c(=O)cc(-c3ccc(CCCC[P+](c4ccccc4)(c4ccccc4)c4ccccc4)cc3)oc12.[Br-] [SND140]", 5.4],
  ["CC(C)NC(=O)Oc1ccc2c(=O)cc(-c3ccc(CCCC[P+](c4ccccc4)(c4ccccc4)c4ccccc4)cc3)oc2c1O [SND127]", 3.8],
  ["O=c1cc(-c2ccc(CCCC[P+](c3ccccc3)(c3ccccc3)c3ccccc3)cc2)oc2c3c(ccc12)OCO3.[Br-] [SND123]", 0.87],
  ["CCNC(=O)Oc1ccc2c(=O)cc(-c3ccc(CCCC[P+](c4ccccc4)(c4ccccc4)c4ccccc4)cc3)oc2c1OC(=O)NCC.[Br-] [SND124]", 1.18],
  ["O=c1cc(-c2ccc(CCCC[P+](c3ccccc3)(c3ccccc3)c3ccccc3)cc2)oc2c(O)c(O)ccc12 [SND118]", 1.76]
]}

====

System: SK-OV-3
procedure_details: Cell viability assay (CellTiter-Blue/CellTiter-Glow)
Type: cell-based
measurement_context: Homo sapiens; ovarian carcinoma cell line SK-OV-3; absolute IC50; 72 h
pIC50: −log10 of the molar value.

{"columns": ["structure_string", "system_name", "pIC50"],
 "data": [
  ["CC(C)NC(=O)Oc1ccc2c(=O)cc(-c3ccc(CCCC[P+](c4ccccc4)(c4ccccc4)c4ccccc4)cc3)oc2c1O", "SK-OV-3", 4.94],
  ["O=c1cc(-c2ccc(CCCC[P+](c3ccccc3)(c3ccccc3)c3ccccc3)cc2)oc2c(O)c(O)ccc12", "SK-OV-3", 5.20],
  ["CCNC(=O)Oc1ccc2c(=O)cc(-c3ccc(CCCC[P+](c4ccccc4)(c4ccccc4)c4ccccc4)cc3)oc2c1OC(=O)NCC.[Br-]", "SK-OV-3", 5.47]
]}

====

Reported pIC50 is given for each of the following compounds.
System: ES-06-0002
procedure_details: PDX-derived cell culture cytotoxicity (CellTiter-Glo)
Type: cell-based
measurement_context: 120 h; esophagus PDX ES-06-0002; absolute IC50; 5 days
pIC50: −log10 of the molar value.

{"columns": ["compound", "pIC50"],
 "data": [
  ["CCNC(=O)Oc1ccc2c(=O)cc(-c3ccc(CCCC[P+](c4ccccc4)(c4ccccc4)c4ccccc4)cc3)oc2c1O.[Br-] [SND126A]", 5.03],
  ["O=c1cc(-c2ccc(CCCC[P+](c3ccccc3)(c3ccccc3)c3ccccc3)cc2)oc2c3c(ccc12)OCO3.[Br-] [SND123]", 5.54],
  ["COc1c(O)ccc2c(=O)cc(-c3ccc(CCCC[P+](c4ccccc4)(c4ccccc4)c4ccccc4)cc3)oc12.[Br-] [SND140]", 5.02],
  ["CCNC(=O)Oc1ccc2c(=O)cc(-c3ccc(CCCC[P+](c4ccccc4)(c4ccccc4)c4ccccc4)cc3)oc2c1OC(=O)NCC.[Br-] [SND124]", 5.25]
]}

====

System: CO-04-0722
procedure_details: PDX-derived cell culture cytotoxicity (CellTiter-Glo)
Type: cell-based
measurement_context: 120 h; colon PDX CO-04-0722; absolute IC50; 5 days

{"columns": ["compound", "IC50 (µM)"],
 "data": [
  ["CCNC(=O)Oc1ccc2c(=O)cc(-c3ccc(CCCC[P+](c4ccccc4)(c4ccccc4)c4ccccc4)cc3)oc2c1OC(=O)NCC.[Br-] [SND124]", 3.2],
  ["COc1c(O)ccc2c(=O)cc(-c3ccc(CCCC[P+](c4ccccc4)(c4ccccc4)c4ccccc4)cc3)oc12.[Br-] [SND140]", 11.6],
  ["O=c1cc(-c2ccc(CCCC[P+](c3ccccc3)(c3ccccc3)c3ccccc3)cc2)oc2c3c(ccc12)OCO3.[Br-] [SND123]", 2.1],
  ["CCNC(=O)Oc1ccc2c(=O)cc(-c3ccc(CCCC[P+](c4ccccc4)(c4ccccc4)c4ccccc4)cc3)oc2c1O.[Br-] [SND126A]", 3.4]
]}

====

Measured IC50 accompanies every entry in the list below.
Tested on: SF-268
procedure_details: Cell viability assay (CellTiter-Blue/CellTiter-Glow)
Assay type: cell-based
measurement_context: Homo sapiens; brain carcinoma cell line SF-268; absolute IC50; 72 h

{"columns": ["molecule", "system_name", "IC50"],
 "data": [
  ["COc1c(O)ccc2c(=O)cc(-c3ccc(CCCC[P+](c4ccccc4)(c4ccccc4)c4ccccc4)cc3)oc12.[Br-]", "SF-268", "9.5 µM"],
  ["CCNC(=O)Oc1ccc2c(=O)cc(-c3ccc(CCCC[P+](c4ccccc4)(c4ccccc4)c4ccccc4)cc3)oc2c1O.[Br-] [SND126A]", "SF-268", "10.7 µM"],
  ["O=c1cc(-c2ccc(CCCC[P+](c3ccccc3)(c3ccccc3)c3ccccc3)cc2)oc2c(O)c(O)ccc12", "SF-268", "15.6 µM"],
  ["CC(C)NC(=O)Oc1ccc2c(=O)cc(-c3ccc(CCCC[P+](c4ccccc4)(c4ccccc4)c4ccccc4)cc3)oc2c1O", "SF-268", "11.9 µM"],
  ["O=c1cc(-c2ccc(CCCC[P+](c3ccccc3)(c3ccccc3)c3ccccc3)cc2)oc2c3c(ccc12)OCO3.[Br-]", "SF-268", "3.15 µM"]
]}

====

Test system: ST-02-0012
procedure_details: PDX-derived cell culture cytotoxicity (CellTiter-Glo)
Type: cell-based
measurement_context: 120 h; stomach PDX ST-02-0012; absolute IC50; 5 days
Catalogue of molecules with associated IC50

{"columns": ["molecule", "IC50 / µM"],
 "data": [
  ["CCNC(=O)Oc1ccc2c(=O)cc(-c3ccc(CCCC[P+](c4ccccc4)(c4ccccc4)c4ccccc4)cc3)oc2c1OC(=O)NCC.[Br-]", 8.2],
  ["O=c1cc(-c2ccc(CCCC[P+](c3ccccc3)(c3ccccc3)c3ccccc3)cc2)oc2c3c(ccc12)OCO3.[Br-]", 0.3],
  ["COc1c(O)ccc2c(=O)cc(-c3ccc(CCCC[P+](c4ccccc4)(c4ccccc4)c4ccccc4)cc3)oc12.[Br-]", 4.9],
  ["CCNC(=O)Oc1ccc2c(=O)cc(-c3ccc(CCCC[P+](c4ccccc4)(c4ccccc4)c4ccccc4)cc3)oc2c1O.[Br-] [SND126A]", 8.9]
]}
